SYSTEM_NAME: TRIM24 (PHD‐BRD) (Homo sapiens, UniProt O15164)
ASSAY_COMMENT: BROMOscan assay, TRIM24
Assay type: binding
TEST_PARAMETERS: BROMOscan TRIM24 PHD-BRD Kd, mean of duplicate data ± 95% confidence interval
MEASUREMENT_NAME: pKd
Recall that pKd is obtained by taking minus log10 of the concentration measured in molar.

Value lookup for pKd; key = `CCCOc1cccc(Oc2cc3c(cc2NS(=O)(=O)c2cccc(C(=O)NCCOCCOCCOCCOCCNC(C)=O)c2)n(C)c(=O)n3C)c1`
8.70

---

SYSTEM_NAME: UniProt:O15164
Sequence (O15164 825-1007): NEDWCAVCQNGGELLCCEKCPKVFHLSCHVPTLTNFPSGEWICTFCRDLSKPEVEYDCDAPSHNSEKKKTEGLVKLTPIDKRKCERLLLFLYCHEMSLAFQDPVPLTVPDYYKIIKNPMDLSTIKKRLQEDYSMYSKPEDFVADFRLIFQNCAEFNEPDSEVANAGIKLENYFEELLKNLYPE
ASSAY_COMMENT: AlphaScreen competition assay, displacement of biotinylated H3(1–27)K9Me3K18Ac (B3)
Type: binding
Set-up: N825–E1007; made in house; host or cells: Escherichia coli BL21-Gold (DE3), plasmid pNIC28-Bsa4
TEST_PARAMETERS: AlphaScreen® IC50 (TRIM24 PHD-BRD), inhibition of TRIM24-H3K9Me3K18Ac (B3) binding; mean of triplicate ± SEM
pIC50: −log10 of the molar value.
MEASUREMENT_NAME: pIC50

COMPOUND	pIC50
CCCOc1cccc(Oc2cc3c(cc2NS(=O)(=O)c2cccc(C(=O)NCCOCCOCCOCCNC(C)=O)c2)n(C)c(=O)n3C)c1 [compound 33]	6.46

(A) CCCOc1cccc(Oc2cc3c(cc2NS(=O)(=O)c2cccc(C(=O)NCCOCCOCCOCCOCCNC(C)=O)c2)n(C)c(=O)n3C)c1 [compound 34]
(B) CCCOc1cccc(Oc2cc3c(cc2NS(=O)(=O)c2cccc(C(=O)NCCOCCOCCNC(C)=O)c2)n(C)c(=O)n3C)c1 [compound 32]
Hi team, can someone confirm which has the larger pIC50: A or B ? Thanks. Respond with the label that goes with your answer.
A
(A: 6.56, B: 6.32)

---

SYSTEM_NAME: His6-TRIM24 (PHD-BRD) (Homo sapiens, UniProt O15164)
ASSAY_COMMENT: AlphaScreen competition assay, displacement of biotinylated H3(1–27)K18Ac (B2)
Design: N825–E1007; made in house; host or cells: Escherichia coli BL21-Gold (DE3), plasmid pNIC28-Bsa4
TEST_PARAMETERS: inhibition of TRIM24-H3K18Ac (B2) binding; mean of triplicate ± SEM
MEASUREMENT_NAME: IC50 (nM)

SMI	UNIT_ABBREV	IC50
CCCOc1cccc(Oc2cc3c(cc2NS(=O)(=O)c2cccc(C(=O)NCCOCCOCCOCCOCCNC(C)=O)c2)n(C)c(=O)n3C)c1	nM	94.2

(1) CCCOc1cccc(Oc2cc3c(cc2NS(=O)(=O)c2cccc(C(=O)O)c2)n(C)c(=O)n3C)c1
(2) CCCOc1cccc(Oc2cc3c(cc2NS(=O)(=O)c2cccc(C(=O)NCCOCCOCCOCCNC(C)=O)c2)n(C)c(=O)n3C)c1
(3) CCCOc1cccc(Oc2cc3c(cc2NS(=O)(=O)c2cccc(C(=O)NCCOCCOCCNC(C)=O)c2)n(C)c(=O)n3C)c1
Arrange items by their IC50 values in increasing order. List the labels according to the requested ordering.
2, 3, 1

---

SYSTEM_NAME: His6-TRIM24 (PHD-BRD) (Homo sapiens, UniProt O15164)
ASSAY_COMMENT: Surface plasmon resonance (SPR)
Type: binding
Design: N825–E1007; made in house; host or cells: Escherichia coli BL21-Gold (DE3), plasmid pNIC28-Bsa4
TEST_PARAMETERS: multi-cycle kinetics, 15 °C; mean of means of triplicate ± SEM; read-out: SPR Kd – kinetic
MEASUREMENT_NAME: Kd (µM)
A number alone suffices; assume µM.

Value lookup for Kd; key = CCCOc1cccc(Oc2cc3c(cc2NS(=O)(=O)c2cccc(C(=O)NCCOCCOCCOCCOCCNC(C)=O)c2)n(C)c(=O)n3C)c1 [compound 34]
0.01

---

SYSTEM_NAME: His6-TRIM24 (PHD-BRD) (Homo sapiens, UniProt O15164)
Sequence (O15164 825-1007): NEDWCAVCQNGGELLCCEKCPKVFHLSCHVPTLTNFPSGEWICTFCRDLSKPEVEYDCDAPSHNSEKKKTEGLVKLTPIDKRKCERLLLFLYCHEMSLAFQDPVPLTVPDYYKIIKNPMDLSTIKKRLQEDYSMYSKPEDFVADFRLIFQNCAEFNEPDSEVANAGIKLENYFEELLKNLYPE
ASSAY_COMMENT: Surface plasmon resonance (SPR)
Format: binding
Design: N825–E1007; made in house; host or cells: Escherichia coli BL21-Gold (DE3), plasmid pNIC28-Bsa4
TEST_PARAMETERS: binding saturation, 15 °C; mean of means of triplicate ± SEM; read-out: SPR Kd – equilibrium
MEASUREMENT_NAME: Kd (nM)
A number alone suffices; assume nM.

Value lookup for Kd; key = `CCCOc1cccc(Oc2cc3c(cc2NS(=O)(=O)c2cccc(C(=O)NCCOCCOCCOCCOCCNC(C)=O)c2)n(C)c(=O)n3C)c1`
11

Attribution: paper PMC12731528
